test system: Danio rerio embryo; assay: LEL larval photomotor response dark phase 120 hpf
measure: LEL larval photomotor response dark phase 120 hpf

{"compound": "C[C@H]1CC[C@@]2(OC1)O[C@H]1C[C@H]3[C@@H]4CC[C@@H]5C[C@@H](O[C@@H]6O[C@H](CO)[C@H](O)[C@H](O)[C@H]6O[C@@H]6O[C@H](CO)[C@@H](O)[C@H](O)[C@H]6O)CC[C@]5(C)[C@H]4CC[C@]3(C)[C@H]1[C@@H]2C [Timosaponin AIII]", "systemName": "Danio rerio embryo", "measured": "> 100 µM"}
{"compound": "COc1cc(NC(C)CCCN)c2ncccc2c1.O=P(O)(O)O.O=P(O)(O)O (stereo not given) [Primaquine]", "systemName": "Danio rerio embryo", "measured": "> 100 µM"}
{"compound": "CO[C@H]1O[C@@H]2O[C@@]3(C)CC[C@H]4[C@H](C)CC[C@@H]([C@H]1C)[C@@]24OO3 [Artemether]", "systemName": "Danio rerio embryo", "measured": "0.41 µM"}

COc1ccccc1NC(=O)c1ccccc1Sc1ccc([N+](=O)[O-])cc1 [RN-18] tested on Danio rerio embryo gave LEL larval photomotor response dark phase 120 hpf: > 100 µM

S=C([S-])OC1CC2CC1C1CCCC21.[K+] (stereo not given) [D609 parent] tested on Danio rerio embryo gave LEL larval photomotor response dark phase 120 hpf: > 100 µM

O=c1cc(-c2ccccc2)oc2cc(O)c(O)c(O)c12 [Baicalein] tested on Danio rerio embryo gave LEL larval photomotor response dark phase 120 hpf: > 100 µM

COC(=O)C[C@](O)(CCC(C)(C)O)C(=O)O[C@@H]1C(OC)=C[C@]23CCCN2CCc2cc4c(cc2[C@H]13)OCO4 [Harringtonine] tested on Danio rerio embryo gave LEL larval photomotor response dark phase 120 hpf: > 100 µM

C[C@@]1(O)[C@H](O)[C@@H](CO)O[C@H]1n1ccc(N)nc1=O [2'-C-Methylcytidine] tested on Danio rerio embryo gave LEL larval photomotor response dark phase 120 hpf: > 100 µM

COc1ccc2cc1Oc1ccc(cc1)C[C@H]1c3c(cc4c(c3Oc3cc5c(cc3OC)CCN(C)[C@@H]5C2)OCO4)CCN1C [Cepharanthine] tested on Danio rerio embryo gave LEL larval photomotor response dark phase 120 hpf: 0.41 µM

CC(=O)c1cc([N+](=O)[O-])c(Sc2cccc(Cl)c2Cl)s1 tested on Danio rerio embryo gave LEL larval photomotor response dark phase 120 hpf: > 100 µM

====

test system: Danio rerio embryo; assay: BMC10 any morphological effect or mortality at 120 hpf; higher = less toxic
measure: BMC10 any morphological effect or mortality

Here's what some known entries look like.
{"compound": "Cn1c(Cn2ccc(C(F)(F)F)c(Oc3cc(Cl)cc(C#N)c3)c2=O)n[nH]c1=O", "systemName": "Danio rerio embryo", "measured": "> 100 µM"}
{"compound": "C[C@@H]1O[C@@H](OC[C@H]2O[C@@H](Oc3c(-c4ccc(O)c(O)c4)oc4cc(O)cc(O)c4c3=O)[C@H](O)[C@@H](O)[C@@H]2O)[C@H](O)[C@H](O)[C@H]1O.O.O.O", "systemName": "Danio rerio embryo", "measured": "> 100 µM"}
{"compound": "Cc1cc(C)c(Nc2ccnc(Nc3ccc(C#N)cc3)n2)c(C)c1", "systemName": "Danio rerio embryo", "measured": "> 100 µM"}
{"compound": "C=C1CC[C@@H]2[C@](C)(CO[C@@H]3O[C@H](CO)[C@@H](O)[C@H](O)[C@H]3O)CCC[C@@]2(C)[C@@H]1CCC1=CCOC1=O [Neoandrographolide]", "systemName": "Danio rerio embryo", "measured": "> 100 µM"}
{"compound": "C[C@@H]1CC[C@H]2[C@@H](C)C(=O)O[C@@H]3O[C@@]4(C)CC[C@@H]1[C@]32OO4", "systemName": "Danio rerio embryo", "measured": "39.4 µM"}

Measured BMC10 any morphological effect or mortality, C#Cc1cn([C@H]2C[C@H](O)[C@@H](CO)O2)c(=O)nc1N : > 100 µM

Measured BMC10 any morphological effect or mortality, O=c1cc(-c2ccccc2)oc2cc(O)cc(O)c12 : 28.6 µM

Measured BMC10 any morphological effect or mortality, Cc1c(O)c(=O)ccn1C : > 100 µM

====

tested on: Danio rerio embryo; assay: BMC10 any morphological effect or mortality at 120 hpf; higher = less toxic
measure: BMC10 any morphological effect or mortality

{"compound": "CCO.C[C@H]1c2cccc(O)c2C(=O)C2=C(O)[C@]3(O)C(=O)C(C(N)=O)=C(O)[C@@H](N(C)C)C3[C@@H](O)C21.C[C@H]1c2cccc(O)c2C(=O)C2=C(O)[C@]3(O)C(=O)C(C(N)=O)=C(O)[C@@H](N(C)C)C3[C@@H](O)C21.Cl.Cl.O (stereo partly drawn)", "measured": "> 100 µM"}
{"compound": "O=C(/C=C/c1ccc(O)c(O)c1)O[C@@H]1C[C@](O)(C(=O)O)C[C@@H](OC(=O)/C=C/c2ccc(O)c(O)c2)[C@H]1O", "measured": "> 100 µM"}

We now examine a further compound.
CC(C)(C)OC(=O)N[C@H]1CCCCC/C=C\[C@@H]2C[C@@]2(C(=O)NS(=O)(=O)C2CC2)NC(=O)[C@@H]2C[C@@H](OC(=O)N3Cc4cccc(F)c4C3)CN2C1=O tested on Danio rerio embryo gave BMC10 any morphological effect or mortality: > 100 µM

====

system: Danio rerio embryo; test: BMC10 any morphological effect or mortality at 120 hpf; higher = less toxic
Entries and their BMC10 any morphological effect or mortality

Here's what some known entries look like.
{"compound": "CC(=O)N[C@@H](CC(C)C)C(=O)N[C@@H](CC(C)C)C(=O)N[C@H](C=O)CCCNC(=N)N.CC(=O)N[C@@H](CC(C)C)C(=O)N[C@@H](CC(C)C)C(=O)N[C@H](C=O)CCCNC(=N)N.O=S(=O)(O)O", "measured": "> 100 µM"}
{"compound": "CCCCCCCCCCCCCCCC(=O)NCCO [Palmitoyl ethanolamide]", "measured": "> 100 µM"}
{"compound": "COc1ccc(C2CNC(=O)C2)cc1OC1CCCC1 (stereo not drawn)", "measured": "> 100 µM"}
{"compound": "CC(C)[C@H](N)C(=O)OCC(CO)OCn1cnc2c(=O)nc(N)[nH]c21.Cl (stereo partly drawn)", "measured": "> 100 µM"}
{"compound": "C=C(C)[C@@H]1CC[C@]2(C(=O)O)CC[C@]3(C)[C@H](CC[C@@H]4[C@@]5(C)CC[C@H](OC(=O)CC(C)(C)C(=O)O)C(C)(C)[C@@H]5CC[C@]43C)[C@@H]12", "measured": "1.29 µM"}
{"compound": "CC(C)C(=O)SCCCCCCC(=O)Nc1nc(-c2ccccc2)cs1", "measured": "0.188 µM"}
{"compound": "C=C[C@H](OC(C)=O)c1ccc(OC(C)=O)cc1 (racemic) [(±)-1'-Acetoxychavicol acetate]", "measured": "1.32 µM"}
{"compound": "COC(=O)C1=CO[C@@H](O[C@@H]2O[C@H](CO)[C@@H](O)[C@H](O)[C@H]2O)[C@@H]2C(CO)=CC[C@H]12 [Geniposide]", "measured": "> 100 µM"}
{"compound": "CO[C@@H]1[C@H](OC(=O)/C=C/C=C/C=C/C=C/C(=O)O)CC[C@]2(CO2)[C@H]1[C@@]1(C)O[C@@H]1CC=C(C)C", "measured": "> 100 µM"}
{"compound": "COc1cc2c(cc1Cc1cccc(Cl)c1F)c(=O)c(C(=O)O)cn2[C@H](CO)C(C)C", "measured": "> 100 µM"}

Measured BMC10 any morphological effect or mortality, NC(=O)c1ncn([C@@H]2O[C@H](CO)[C@@H](O)[C@H]2O)c1O : > 100 µM

Measured BMC10 any morphological effect or mortality, Nc1nc(=O)n([C@@H]2CS[C@H](CO)O2)cc1F : > 100 µM

Measured BMC10 any morphological effect or mortality, O=c1[nH]cc(F)c(=O)[nH]1 : > 100 µM

Measured BMC10 any morphological effect or mortality, COC(=O)N[C@H](C(=O)N1CCC[C@H]1c1nc2cc([C@H]3CC[C@H](c4cc5nc([C@@H]6CCCN6C(=O)[C@@H](NC(=O)OC)[C@@H](C)OC)[nH]c5cc4F)N3c3cc(F)c(N4CCC(c5ccc(F)cc5)CC4)c(F)c3)c(F)cc2[nH]1)[C@@H](C)OC : > 100 µM

Measured BMC10 any morphological effect or mortality, Cl.Nc1c(Br)cc(Br)cc1CN[C@H]1CC[C@H](O)CC1 : 42.5 µM

====

test system: Danio rerio embryo; assay: BMC10 any morphological effect or mortality at 120 hpf; higher = less toxic
Entries and their BMC10 any morphological effect or mortality

Here's what some known entries look like.
{"compound": "COC(=O)C[C@](O)(CCC(C)(C)O)C(=O)O[C@@H]1C(OC)=C[C@]23CCCN2CCc2cc4c(cc2[C@H]13)OCO4", "measured": "10.8 µM"}
{"compound": "Cc1cn([C@H]2C=C[C@@H](CO)O2)c(=O)[nH]c1=O", "measured": "> 100 µM"}
{"compound": "CCS(=O)(=O)Nc1ccc2c(c1)/C(=C(/Nc1ccc(CN3CCCCC3)cc1)c1ccccc1)C(=O)N2", "measured": "2.02 µM"}
{"compound": "C[C@H]1[C@@H](O)O[C@@H]2O[C@@]3(C)CC[C@H]4[C@H](C)CC[C@@H]1[C@@]24OO3 [Dihydroartemisinin]", "measured": "2.99 µM"}

Measured BMC10 any morphological effect or mortality, CC(C)(C)C1=C(O)C(C(C)(C)C)=CC(/C=C(C#N)\C#N)=C1 : > 100 µM

Measured BMC10 any morphological effect or mortality, O=C(O)[C@H]1O[C@@H](Oc2cc3oc(-c4ccc(O)cc4)cc(=O)c3c(O)c2O)[C@H](O)[C@@H](O)[C@@H]1O : > 100 µM

Measured BMC10 any morphological effect or mortality, COc1cc(C(=O)NCc2ccc(OCCN(C)C)cc2)cc(OC)c1OC.Cl [Trimethobenzamide] : > 100 µM

Measured BMC10 any morphological effect or mortality, CC(C)C1=C2[C@H]3CC[C@@H]4[C@@]5(C)CC[C@H](OC(=O)CC(C)(C)C(=O)O)C(C)(C)[C@@H]5CC[C@@]4(C)[C@]3(C)CC[C@@]2([C@@H](O)CN(CCN(C)C)Cc2ccc(Cl)cc2)CC1=O : > 100 µM

Measured BMC10 any morphological effect or mortality, CCNCc1nc2c(N)nc3ccccc3c2n1CC(C)(C)O : > 100 µM

Measured BMC10 any morphological effect or mortality, O=c1cc(-c2ccc(O)c(O)c2)oc2cc(O[C@@H]3O[C@H](CO)[C@@H](O)[C@H](O)[C@H]3O)cc(O)c12 [Luteoloside] : > 100 µM
